# Tested System: particulate guanylyl cyclase receptor A (pGC-A) (Homo sapiens, UniProt P16066)
# Construct: expressed in transfected cells; host or cells: HEK293
# Sequence (P16066 33-1061): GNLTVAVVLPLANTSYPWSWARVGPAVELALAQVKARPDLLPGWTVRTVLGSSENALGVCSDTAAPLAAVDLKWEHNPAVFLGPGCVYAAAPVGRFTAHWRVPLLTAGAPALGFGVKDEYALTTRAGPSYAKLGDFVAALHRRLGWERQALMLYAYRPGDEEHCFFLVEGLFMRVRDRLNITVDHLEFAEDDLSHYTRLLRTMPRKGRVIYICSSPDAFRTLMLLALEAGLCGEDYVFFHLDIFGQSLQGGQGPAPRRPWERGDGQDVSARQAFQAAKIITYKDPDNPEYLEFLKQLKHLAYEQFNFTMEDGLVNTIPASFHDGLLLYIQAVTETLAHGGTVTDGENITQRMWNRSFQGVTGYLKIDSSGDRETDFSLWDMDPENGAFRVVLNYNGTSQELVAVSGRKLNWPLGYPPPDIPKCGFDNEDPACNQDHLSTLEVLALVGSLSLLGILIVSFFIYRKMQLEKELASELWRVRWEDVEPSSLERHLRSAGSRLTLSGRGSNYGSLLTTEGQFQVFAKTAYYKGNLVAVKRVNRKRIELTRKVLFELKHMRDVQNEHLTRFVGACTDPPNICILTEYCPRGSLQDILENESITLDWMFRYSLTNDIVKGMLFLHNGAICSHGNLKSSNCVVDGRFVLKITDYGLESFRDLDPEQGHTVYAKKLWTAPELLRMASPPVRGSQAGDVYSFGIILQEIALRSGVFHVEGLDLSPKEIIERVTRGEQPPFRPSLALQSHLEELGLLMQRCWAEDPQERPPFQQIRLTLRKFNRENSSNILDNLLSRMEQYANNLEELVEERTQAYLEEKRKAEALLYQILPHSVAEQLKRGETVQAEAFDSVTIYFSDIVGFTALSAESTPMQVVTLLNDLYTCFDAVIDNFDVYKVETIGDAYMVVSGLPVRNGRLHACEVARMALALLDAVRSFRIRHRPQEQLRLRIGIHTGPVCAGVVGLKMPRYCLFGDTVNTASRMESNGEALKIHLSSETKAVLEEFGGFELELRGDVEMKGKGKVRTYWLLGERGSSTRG
# Sequence (P01160 124-151 partner limits assumed): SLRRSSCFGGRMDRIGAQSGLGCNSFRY
# Test Method Notes: cGMP production by HTRF in HEK293 cells overexpressing pGC-A, with ANP
# Assay type: cell-based
# Experimental Context: HEK293 cells overexpressing pGC-A; cGMP normalized to maximal amount produced by an EC80 concentration of ANP
Reported Endpoint: Max efficacy (%)
Enter your answer as a number in %; do not include the unit.

Return value of Max efficacy for input CCN(CC)CCN1CCCC(C(=O)Nc2nc3c(F)cc(F)cc3s2)C1 (centres unmarked) , no commentary.
92

Return value of Max efficacy for input CCN(C)C(=O)N1CCCC(C(=O)Nc2nc3c(F)cc(F)cc3s2)C1 (centres unmarked) , no commentary.
72

Return value of Max efficacy for input O=C(Nc1nc2c(F)cc(F)cc2s1)C1CCCN(CCN2CCCCC2)C1 (centres unmarked) , no commentary.
77

Return value of Max efficacy for input Cn1cc(N2CCCC(C(=O)Nc3nc4c(F)cc(F)cc4s3)C2)cn1 (centres unmarked) , no commentary.
81
